# subjectOfTest: HLA-C*03:03
# protocolText: IEDB peptide-MHC binding, purified MHC/direct/fluorescence; filed as Kd, often an IC50 or EC50 that approximates it; bounds were set here for any values at or beyond the usual limits of such assays
# conditionsUsed: source organism: Yersinia pestis Nepal516
outcomeMeasure: Kd (µM)
Give bare numbers, in µM.

What value of measured Kd is listed for FHYQDPFPL ?
1.39

----------
# subjectOfTest: HLA-B*27:05
# protocolText: IEDB peptide-MHC binding, purified MHC/direct/fluorescence; filed as Kd, often an IC50 or EC50 that approximates it; bounds were set here for any values at or beyond the usual limits of such assays
# conditionsUsed: source organism: Mycobacterium tuberculosis
pKd: −log10 of the molar value.
outcomeMeasure: pKd

Find the measured pKd: item IQAVFGFSL , target or system HLA-B*27:05.
≤ 4.70
